Measured values drawn from paper PMC4403932 for this set.

- target_system: PB1(5) (Homo sapiens, UniProt Q86U86)
- Construct: made in house
- Sequence (Q86U86 653-763 limits assumed): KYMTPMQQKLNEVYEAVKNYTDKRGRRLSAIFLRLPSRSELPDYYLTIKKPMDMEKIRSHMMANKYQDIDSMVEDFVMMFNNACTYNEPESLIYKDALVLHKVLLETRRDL
- experimental_details: Protein stability (thermal) shift assay, PB1(5)
- Format: binding
- assay_context: compound 10 μM, protein 2 μM; average of triplicate
- Protocol: Thermal melting experiments were carried out using an Mx3005p real time PCR machine (Stratagene). Proteins were buffered in 10 mM HEPES, pH 7.5, 500 mM NaCl and assayed in a 96-well plate at a final concentration of 2 μM in 20 μL volume. […] SYPRO Orange (Molecular Probes) was added as a fluorescence probe at a dilution of 1 in 1000. […] The temperature was raised with a step of 3 °C per minute from 25 to 96 °C, and fluorescence readings were taken at each interval. […]
Each entry below lists one item and its recorded ΔTm at 10 µM value.
Number in °C, nothing else.

1. Nc1nc(-c2cccc(OCc3ccc(Cl)cc3)c2)c2nc[nH]c2n1 [Compound 4d] :: 0.553

Next, consider the following compound.
# ΔTm at 10 µM of Nc1nc(-c2ccccc2)c2nc[nH]c2n1 [Compound 3a, 2-Amino-6-phenyl-9H-purine] = 0.9

----------
- target_system: BRD3(1) (Homo sapiens)
- Construct: Fragments were tested in a thermal shift assay against bromodomains of the BET subfamily; made in house
- Sequence (Q15059 34-140 limits assumed): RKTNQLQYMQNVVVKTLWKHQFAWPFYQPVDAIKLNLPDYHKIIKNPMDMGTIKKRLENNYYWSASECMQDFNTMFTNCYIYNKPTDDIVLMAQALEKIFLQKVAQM
- experimental_details: Protein stability (thermal) shift assay, BRD3(1)
- Assay type: binding
- assay_context: compound 10 μM, protein 2 μM; average of triplicate
- Procedure: Thermal melting experiments were carried out using an Mx3005p real time PCR machine (Stratagene). Proteins were buffered in 10 mM HEPES, pH 7.5, 500 mM NaCl and assayed in a 96-well plate at a final concentration of 2 μM in 20 μL volume. […] SYPRO Orange (Molecular Probes) was added as a fluorescence probe at a dilution of 1 in 1000. […] The temperature was raised with a step of 3 °C per minute from 25 to 96 °C, and fluorescence readings were taken at each interval. […]
endpoint_name: ΔTm at 10 µM (°C)
The response must be a number in °C with no trailing unit.

// known answers, use as guide
1) Nc1nc(-c2ccc(OCc3ccccc3)cc2)c2nc[nH]c2n1 [Compound 3f] :: 2.2
2) COc1ccc(Br)cc1-c1nc(N)nc2c1ncn2C [Compound 8b] :: 0.147

Shift focus to the following entry.
Short answer for Cn1cnc2c(Br)nc(N)nc21 [Compound 2b, 2-Amino-6-bromo-9-methylpurine] : ΔTm at 10 µM was 0.654

----------
- target_system: BRD9 (Homo sapiens, UniProt Q9H8M2)
- Construct: made in house
- Sequence (Q9H8M2 136-240 limits assumed): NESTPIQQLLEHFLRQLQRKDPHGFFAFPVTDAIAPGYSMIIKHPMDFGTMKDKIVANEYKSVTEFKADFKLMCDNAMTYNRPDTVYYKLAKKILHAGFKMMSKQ
- experimental_details: Protein stability (thermal) shift assay, BRD9
- Format: binding
- assay_context: compound 10 μM, protein 2 μM; average of triplicate; read-out: ΔTm Shift, BRD9
Label t when ΔTm at 10 µM is strictly below 0.01 °C; otherwise label f.

Please review the following examples before continuing.
1. COc1ccc(Br)cc1-c1nc(Cl)nc2[nH]cnc12 :: f
2. COc1ccc(-c2nc(N)nc3c2ncn3C)cc1 :: t
3. COc1ccc(F)cc1-c1nc(N)nc2[nH]cnc12 :: f
4. COc1cccc(OCC(C)C)c1-c1nc(N)nc2[nH]cnc12 :: t
5. Cn1cnc2c(Br)nc(N)nc21 :: t
6. COc1ccc(Br)cc1-c1nc(N)nc2[nH]cnc12 :: f
7. Nc1nc(-c2ccc(OCc3ccccc3)cc2)c2nc[nH]c2n1 :: t
8. COc1ccc(Br)cc1-c1nc(N)nc2c1ncn2CC(C)=O :: t
9. Nc1nc(-c2ccc3c(c2)OCCO3)c2nc[nH]c2n1 :: f
10. Nc1nc(-c2ccc(OCc3ccccc3)c(Cl)c2)c2nc[nH]c2n1 :: t

// switching to the query compound
Quick check: ΔTm at 10 µM of COc1ccc(F)cc1-c1ncnc2[nH]c(C)nc12 under 0.01 °C? f
